Test: 3D cell viability assay (MTS, collagen)
Type: cell-based, mouse
Settings: mouse, KPC CAFs embedded in polymerized collagen (3D), PXS-5505 30 (unit inferred), replicates
Procedure: The 3D cell viability assays were performed using cells embedded into polymerized collagen at 2.5 mg ml^−1. KPC CAFs and CCs were seeded at 10,000 cells per well in a 96-well plate. MTS solution (Promega) was added to the cells at a 1:20 dilution and cells were incubated at 37 °C for 1.5 h. Cell proliferation rates were measured by detecting the absorbance at 490 nm using a microplate reader and three biological repeats were performed. Data presented as mean values +/− SD. f. […]
Reported Endpoint: viability (%)
Form entry: value (%) — number only.

## Task Recorded viability for Cl.Cl.NC/C=C(\F)CS(=O)(=O)c1cccc2cccnc12.O , please?
## Result 87.5

* * *

test: 2D cell viability assay (MTS); format: cell-based, mouse; conditions: mouse, KPC cancer cells (CCs, 2D culture), Cancer cells; PXS-5505 100 (unit inferred); replicates
Reported Endpoint: viability
Your reply should be a number followed by the unit it is expressed in.

## Task Recorded viability for Cl.Cl.NC/C=C(\F)CS(=O)(=O)c1cccc2cccnc12.O , please?
## Result 102%

* * *

assay: 2D cell viability assay (MTS); assay type: cell-based, mouse; details: mouse, KPC cancer cells (CCs, 2D culture), Cancer cells; PXS-5505 30 (unit inferred); replicates
Reported Endpoint: viability (%)
Form entry: value (%) — number only.

## Task Recorded viability for Cl.Cl.NC/C=C(\F)CS(=O)(=O)c1cccc2cccnc12.O [PXS-5505] , please?
## Result 110

* * *

assay: Rat pharmacokinetics, single dose orally (10 mg/kg) or intravenously (5 mg/kg); details: plasma, po, 10 mg/kg
Reported Endpoint: AUC(0-t) (ng·h/mL)
Form entry: value (ng·h/mL) — number only.

## Task Recorded AUC(0-t) for Cl.Cl.NC/C=C(\F)CS(=O)(=O)c1cccc2cccnc12.O , please?
## Result 1600

* * *

biological target: Recombinant LOXL-1 (Homo sapiens); experiment: Lysyl oxidase enzymatic activity, fluorescence-based assay, IC50; format: biochemical
Sequence (Q08397 96-574): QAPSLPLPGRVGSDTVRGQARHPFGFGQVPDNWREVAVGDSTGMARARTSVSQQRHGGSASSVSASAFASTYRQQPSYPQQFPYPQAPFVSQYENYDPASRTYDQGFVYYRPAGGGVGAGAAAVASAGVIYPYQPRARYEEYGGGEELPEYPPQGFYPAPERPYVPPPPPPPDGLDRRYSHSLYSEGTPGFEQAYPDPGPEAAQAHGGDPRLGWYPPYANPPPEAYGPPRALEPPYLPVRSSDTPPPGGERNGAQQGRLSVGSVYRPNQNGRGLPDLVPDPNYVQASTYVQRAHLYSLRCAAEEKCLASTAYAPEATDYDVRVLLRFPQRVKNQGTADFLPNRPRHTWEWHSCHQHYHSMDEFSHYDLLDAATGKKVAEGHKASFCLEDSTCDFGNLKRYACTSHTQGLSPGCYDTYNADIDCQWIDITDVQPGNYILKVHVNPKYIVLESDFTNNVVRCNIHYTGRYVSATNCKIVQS
Reported Endpoint: pIC50
Schema: pIC50 number; meaning minus log10 of the concentration expressed in molar units.

## Task Recorded pIC50 for Cl.Cl.NC/C=C(\F)CS(=O)(=O)c1cccc2cccnc12.O [PXS-5505] , please?
## Result 5.80
